Tested on: NIH3T3 cells overexpressing m-calpain
Assay: MTT cell viability, m-calpain overexpressing cells vs parental line
Type: cell-based, mouse
Conditions: m-calpain high-expressing cells / parental cell line, 3 to 4 days
Description: With regard to the function-known genes, the genes shown in the left column of Table 2 were used. […] Cell viabilities were measured according to the following procedures. […] 5) Cells (each high-expressing cells and the parental cell line) were detached from the medium using a trypsin solution, suspended in 10% CS-DMEM and transferred to a test tube and cell numbers (cell/ml) were counted. […] 10) Coloration of formazan which was a metabolite of the MTT dye was measured using a microplate reader. […]
Class membership depends on logarithmic value of ratio of IC40 values alone; the intervals are L = under 0, M = from 0 up to 0.2, H = 0.2 and over

Please review the entries below; each comes with its answer.
* C=C1[C@@H](O)[C@@H]2O[C@]3(CC[C@H](/C=C/[C@@H](C)[C@@H]4CC(C)=C[C@@]5(O[C@H](C[C@@](C)(O)C(=O)O)CC[C@H]5O)O4)O3)CC[C@H]2O[C@@H]1[C@@H](O)C[C@H](C)[C@H]1O[C@@]2(CCCCO2)CC[C@H]1C | L
* COC[C@H]1OC(=O)c2coc3c2[C@@]1(C)C1=C(C3=O)[C@@H]2CCC(=O)[C@@]2(C)C[C@H]1OC(C)=O | M
* C[C@@H]1C[C@@H]([C@H](O)CC2CC(=O)NC(=O)C2)C(=O)[C@@H](C)C1 [CHX, cycloheximide] | H
* C/C=C(/C)C(=O)O[C@H]1C(C)=C2[C@H]([C@@H]1OC(=O)CCCCCCC)[C@@](C)(OC(C)=O)C[C@H](OC(=O)CCC)[C@@]1(O)[C@H]2OC(=O)[C@@]1(C)O | M
* O=[As]O [NaAsO2, sodium arsenite] | L
* C=C[C@@]1(C)CC(=O)[C@]2(O)[C@@]3(C)[C@@H](O)CCC(C)(C)[C@@H]3[C@H](O)[C@H](OC(C)=O)[C@@]2(C)O1 | H

(Q) Hey, which category is C=CC1=C(C)c2cc3[n-]c(cc4nc(cc5[n-]c(cc1n2)c(C)c5CCC(=O)O)C(CCC(=O)O)=C4C)c(C)c3C=C.[Cl-].[Cl-].[Sn+4] in, do you know?
(A) L

(Q) Hey, which category is COc1ccc2c(c1)CC[C@@H]1[C@@H]2CC[C@]2(C)[C@@H](NCCCCCCN3C(=O)C=CC3=O)CC[C@@H]12 in, do you know?
(A) L

(Q) Hey, which category is COC(=O)[C@@]1(O)C[C@H]2O[C@]1(C)n1c3ccccc3c3c4c(c5c6ccccc6n2c5c31)C(=O)NC4 [K252a] in, do you know?
(A) M

(Q) Hey, which category is C[C@@H]1O[C@@H](O[C@H]2C[C@@H](O)[C@]3(CO)[C@H]4[C@H](O)C[C@]5(C)[C@@H](C6=CC(=O)OC6)CC[C@]5(O)[C@@H]4CC[C@]3(O)C2)[C@H](O)[C@H](O)[C@H]1O in, do you know?
(A) M

(Q) Hey, which category is O=c1c(-c2ccc(O)cc2)coc2cc(O)cc(O)c12 in, do you know?
(A) M

----------
Test system: NIH3T3 cells overexpressing calpastatin
Experiment: MTT cell viability, calpastatin overexpressing cells vs parental line
Type: cell-based, mouse
Details: calpastatin high-expressing cells / parental cell line, 3 to 4 days
Experimental: With regard to the function-known genes, the genes shown in the left column of Table 2 were used. […] Cell viabilities were measured according to the following procedures. […] 5) Cells (each high-expressing cells and the parental cell line) were detached from the medium using a trypsin solution, suspended in 10% CS-DMEM and transferred to a test tube and cell numbers (cell/ml) were counted. […] 10) Coloration of formazan which was a metabolite of the MTT dye was measured using a microplate reader. […]
Here the recorded logarithmic value of ratio of IC40 values is given for each entry.
Lab note: record the figure alone, no unit after it.

- O=CN/C=C/c1cc(O)ccc1O: −0.2
- CN[C@@H]1C[C@H]2O[C@@](C)([C@@H]1OC)n1c3ccccc3c3c4c(c5c6ccccc6n2c5c31)C(=O)NC4: 0.04
- COC[C@H]1OC(=O)c2coc3c2[C@@]1(C)C1=C(C3=O)[C@@H]2CCC(=O)[C@@]2(C)C[C@H]1OC(C)=O: −0.14
- C=C[C@@]1(C)CC(=O)[C@]2(O)[C@@]3(C)[C@@H](O)CCC(C)(C)[C@@H]3[C@H](O)[C@H](OC(C)=O)[C@@]2(C)O1: −0.09
- C/C=C(/C)C(=O)O[C@H]1C(C)=C2[C@H]([C@@H]1OC(=O)CCCCCCC)[C@@](C)(OC(C)=O)C[C@H](OC(=O)CCC)[C@@]1(O)[C@H]2OC(=O)[C@@]1(C)O: 0.046

(Q) Which logarithmic value of ratio of IC40 values value is on record for C[C@@H]1C[C@@H]([C@H](O)CC2CC(=O)NC(=O)C2)C(=O)[C@@H](C)C1 [CHX, cycloheximide] ?
(A) 0.31

(Q) Which logarithmic value of ratio of IC40 values value is on record for CO[C@H]1[C@@H](OC)C[C@H](C)[C@@H](OC)C2=CC(=O)C=C(NC(=O)/C(C)=C/C=C\[C@H](OC)[C@@H](OC(N)=O)/C(C)=C/[C@@H]1C)C2=O ?
(A) −0.14

----------
test system: NIH3T3 cells overexpressing DAN; test: MTT cell viability, DAN overexpressing cells vs parental line; assay type: cell-based, mouse; conditions: DAN high-expressing cells / parental cell line, 3 to 4 days
Non-standard residues stand in square brackets, D forms with d. Residues, ends and D or L forms follow the SMILES beside them. Nle = CCCC[C@H](N)C(=O)O
READOUT_KIND: logarithmic value of ratio of IC40 values
Lab note: record the figure alone, no unit after it.

For orientation, consider the following solved cases.
• COc1ccc2c(c1)CC[C@@H]1[C@@H]2CC[C@]2(C)[C@@H](NCCCCCCN3C(=O)C=CC3=O)CC[C@@H]12 [U73122] = 0.36
• C[C@@H]1C[C@@H]([C@H](O)CC2CC(=O)NC(=O)C2)C(=O)[C@@H](C)C1 [CHX, cycloheximide] = 0.72
• CC(C)(C)C(=O)Oc1ccc(S(=O)(=O)Nc2ccccc2C(=O)NCC(=O)O)cc1 [compound 5046] = 0.26
• C=C[C@@]1(C)CC(=O)[C@]2(O)[C@@]3(C)[C@@H](O)CCC(C)(C)[C@@H]3[C@H](O)[C@H](OC(C)=O)[C@@]2(C)O1 [Forskolin, forskolin] = 0.88
• CO[C@H]1[C@@H](OC)C[C@H](C)[C@@H](OC)C2=CC(=O)C=C(NC(=O)/C(C)=C/C=C\[C@H](OC)[C@@H](OC(N)=O)/C(C)=C/[C@@H]1C)C2=O [HMA, herbimycin A] = −0.05

(Q) Which logarithmic value of ratio of IC40 values value is on record for CCCC[C@@H](C=O)NC(=O)[C@H](CC(C)C)NC(=O)[C@H](CC(C)C)NC(C)=O [ALLN] (Ac-Leu-Leu-[Nle]-aldehyde) ?
(A) 0.00

----------
test system: NIH3T3 cells overexpressing PKCalpha-KN; test: MTT cell viability, PKCalpha-KN overexpressing cells vs parental line; format: cell-based, mouse; conditions: PKCalpha-KN (first of two lines) high-expressing cells / parental cell line, 3 to 4 days
READOUT_KIND: logarithmic value of ratio of IC40 values
Lab note: record the figure alone, no unit after it.

(Q) Which logarithmic value of ratio of IC40 values value is on record for O=c1c(-c2ccc(O)cc2)coc2cc(O)cc(O)c12 ?
(A) 0.16

(Q) Which logarithmic value of ratio of IC40 values value is on record for COc1ccc2c(c1)CC[C@@H]1[C@@H]2CC[C@]2(C)[C@@H](NCCCCCCN3C(=O)C=CC3=O)CC[C@@H]12 ?
(A) −0.33

(Q) Which logarithmic value of ratio of IC40 values value is on record for CCCC[C@@H](C)/C=C(C)/C=C(\C)C(=O)NC1=C[C@@](O)(/C=C/C=C/C=C/C(=O)NC2=C(O)CCC2=O)[C@@H]2O[C@@H]2C1=O ?
(A) 0.00

(Q) Which logarithmic value of ratio of IC40 values value is on record for CN(C)CCCn1cc(C2=C(c3c[nH]c4ccccc34)C(=O)NC2=O)c2ccccc21 [GF109203X] ?
(A) 0.22

(Q) Which logarithmic value of ratio of IC40 values value is on record for CC(=O)OCOC(=O)CN(CC(=O)OCOC(C)=O)c1ccccc1OCCOc1ccccc1N(CC(=O)OCOC(C)=O)CC(=O)OCOC(C)=O ?
(A) 0.43

(Q) Which logarithmic value of ratio of IC40 values value is on record for C[C@@H]1C[C@@H]([C@H](O)CC2CC(=O)NC(=O)C2)C(=O)[C@@H](C)C1 [CHX, cycloheximide] ?
(A) 0.30
